- Organism: Rattus norvegicus
- test.summary: Open TG-GATES - Regimen: Single
- Assay type: toxicity, organism-based, Sprague-Dawley
- Parameters: regimen Single, gender Male, age 6 weeks
- experimental.parameters: in vivo, po, 300 mg/kg, 6 h, tissue Plasma, route gavage, dose level Middle
Each record here notes measured gamma-GTP.
Report the figure in IU/L without appending any unit label.

compound	gamma-GTP / IU/L
COC1=CC(=O)C[C@@H](C)[C@]12Oc1c(Cl)c(OC)cc(OC)c1C2=O	1.4
COc1ccc2[nH]c([S+]([O-])Cc3ncc(C)c(OC)c3C)nc2c1 (centres undefined)	1.4
NC(N)=Nc1nc(CSCCC(N)=NS(N)(=O)=O)cs1	2

Kindly consider the entry below.
Problem: Item CCOC(=O)CCC(=O)O[C@H]1[C@H](O[C@@H]2[C@@H](C)[C@H](O[C@H]3C[C@@](C)(OC)[C@@H](O)[C@H](C)O3)[C@@H](C)C(=O)O[C@H](CC)[C@@](C)(O)[C@H](O)[C@@H](C)C(=O)[C@H](C)C[C@@]2(C)O)O[C@H](C)C[C@@H]1N(C)C [ERYTHROMYCIN ETHYLSUCCINATE] has what recorded gamma-GTP?
Result: 1.2
